Catalogue of compounds with associated IC50
# TARGET OR SYSTEM: UniProtKB P22303
# ASSAY COMMENT: Inhibition of human erythrocyte AChE using ATCI as substrate preincubated for 30 mins followed by substrate addition measured after 30 mins by Ellman assay
Value expressed in nM; do not type the unit.

Known IC50 results, listed for orientation:
>>> val("COc1ccc(-c2nc(NC(=O)C3CCN(Cc4ccc(F)cc4C(F)(F)F)CC3)sc2-c2ccc(OC)cc2)cc1")
1230
>>> val("COc1ccc(-c2nc(NC(=O)C3CCN(Cc4cc(F)cc(F)c4)CC3)sc2-c2ccc(OC)cc2)cc1")
2450
>>> val("COc1ccc(-c2nc(NC(=O)C3CCN(Cc4ccc(F)cc4)CC3)sc2-c2ccc(OC)cc2)cc1")
1160
>>> val("Cc1ccc(-c2nc(NCC3CCN(Cc4ccccc4C)CC3)sc2-c2ccc(C)cc2)cc1")
500
>>> val("Cc1ccc(-c2nc(NCC3CCN(Cc4ccc(F)cc4)CC3)sc2-c2ccc(C)cc2)cc1")
370
>>> val("O=C(Nc1nc(-c2ccc(Cl)cc2)c(-c2ccc(Cl)cc2)s1)C1CCN(Cc2ccc(F)cc2Cl)CC1")
3700

Continue with the next compound.
(Q) Can you look up the measured IC50 of Fc1cc(F)cc(CN2CCC(CNc3nc(-c4ccc(Cl)cc4)c(-c4ccc(Cl)cc4)s3)CC2)c1 for me?
(A) 630

----------
# ASSAY COMMENT: in vitro
# MEASUREMENT CONDITIONS: human, SH-SY5Y cells
# Description: Cytotoxicity against human SH-SY5Y cells assessed as cell viability at 80 uM after 24 hrs by MTT assay
Catalogue of molecules with associated viability at 24 h, 80 µM
Value expressed in %; do not type the unit.

Known viability at 24 h, 80 µM results, listed for orientation:
>>> val("O=C(Nc1nc(-c2ccc(Cl)cc2)c(-c2ccc(Cl)cc2)s1)C1CCN(Cc2cccc(F)c2)CC1")
91.1
>>> val("Cc1ccc(-c2nc(NCC3CCN(Cc4ccccc4C(F)(F)F)CC3)sc2-c2ccc(C)cc2)cc1")
91.7
>>> val("COc1ccc(-c2nc(NCC3CCN(Cc4c(F)cccc4Cl)CC3)sc2-c2ccc(OC)cc2)cc1")
87.1

Continue with the next molecule.
(Q) Can you look up the measured viability at 24 h, 80 µM of O=C(Nc1nc(-c2ccc(Cl)cc2)c(-c2ccc(Cl)cc2)s1)C1CCN(Cc2cc(F)cc(F)c2)CC1 for me?
(A) 92.8

----------
Each entry below carries its measured pIC50, system: Acetylcholinesterase (Homo sapiens).
Sequence (P22303 whole entry): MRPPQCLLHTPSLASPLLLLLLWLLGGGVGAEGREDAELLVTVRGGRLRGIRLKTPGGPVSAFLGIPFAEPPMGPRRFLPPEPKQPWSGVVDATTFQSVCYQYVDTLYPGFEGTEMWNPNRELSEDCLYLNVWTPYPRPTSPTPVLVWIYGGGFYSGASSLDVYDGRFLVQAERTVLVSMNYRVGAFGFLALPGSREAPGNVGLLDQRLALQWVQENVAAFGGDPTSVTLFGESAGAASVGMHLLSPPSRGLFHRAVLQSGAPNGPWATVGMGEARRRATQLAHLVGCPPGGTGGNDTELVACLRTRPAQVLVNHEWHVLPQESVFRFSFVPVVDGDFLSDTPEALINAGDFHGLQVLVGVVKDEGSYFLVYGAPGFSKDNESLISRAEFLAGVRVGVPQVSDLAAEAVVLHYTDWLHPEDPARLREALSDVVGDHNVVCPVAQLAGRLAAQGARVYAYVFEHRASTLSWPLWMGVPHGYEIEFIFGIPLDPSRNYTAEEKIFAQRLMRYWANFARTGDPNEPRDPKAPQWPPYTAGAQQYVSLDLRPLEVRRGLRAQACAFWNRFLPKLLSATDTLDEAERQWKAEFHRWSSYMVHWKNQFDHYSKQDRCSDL
Keep in mind that pIC50 stands for -log10 of concentration in molar terms.

>>> val("Cc1ccccc1CN1CCC(CNc2nc(-c3ccc(Cl)cc3)c(-c3ccc(Cl)cc3)s2)CC1")
6.06
>>> val("Clc1ccc(-c2nc(NC3CCN(Cc4ccccc4)CC3)sc2-c2ccc(Cl)cc2)cc1")
5.86
>>> val("COc1ccc(-c2nc(NC(=O)C3CCN(Cc4ccccc4C(F)(F)F)CC3)sc2-c2ccc(OC)cc2)cc1")
6.17
>>> val("COc1ccc(-c2nc(NCC3CCN(Cc4ccccc4C(F)(F)F)CC3)sc2-c2ccc(OC)cc2)cc1")
6.16
>>> val("Cc1ccccc1CN1CCC(C(=O)Nc2nc(-c3ccc(Cl)cc3)c(-c3ccc(Cl)cc3)s2)CC1")
5.96
>>> val("COc1ccc(-c2nc(NC(=O)C3CCN(Cc4ccccc4C#N)CC3)sc2-c2ccc(OC)cc2)cc1")
5.55

(Q) Can you look up the measured pIC50 of O=C(Nc1nc(-c2ccc(Cl)cc2)c(-c2ccc(Cl)cc2)s1)C1CCN(Cc2cccc(F)c2)CC1 for me?
(A) 6.19

(Q) Consider next the compound Cc1ccc(-c2nc(NC(=O)C3CCN(Cc4ccccc4C(F)(F)F)CC3)sc2-c2ccc(C)cc2)cc1 in the same way.
(A) 5.12

(Q) Consider next the compound COc1ccc(-c2nc(NC(=O)C3CCN(Cc4ccccc4C)CC3)sc2-c2ccc(OC)cc2)cc1 in the same way.
(A) 5.87

(Q) Consider next the compound O=C(Nc1nc(-c2ccc(Cl)cc2)c(-c2ccc(Cl)cc2)s1)C1CCN(Cc2cc(F)cc(F)c2)CC1 in the same way.
(A) 6.19

(Q) Consider next the compound Cc1ccc(-c2nc(NC(=O)C3CCN(Cc4c(F)cccc4Cl)CC3)sc2-c2ccc(C)cc2)cc1 in the same way.
(A) 5.54

(Q) Consider next the compound COc1ccc(-c2nc(NCC3CCN(Cc4c(F)cccc4Cl)CC3)sc2-c2ccc(OC)cc2)cc1 in the same way.
(A) 6.44

(Q) Consider next the compound Cc1ccc(-c2nc(NC(=O)C3CCN(Cc4ccc([N+](=O)[O-])cc4)CC3)sc2-c2ccc(C)cc2)cc1 in the same way.
(A) 5.63

(Q) Consider next the compound COc1ccc(-c2nc(NC(=O)C3CCN(Cc4cccc(F)c4)CC3)sc2-c2ccc(OC)cc2)cc1 in the same way.
(A) 6.24

(Q) Consider next the compound Cc1ccc(CN2CCC(Nc3nc(-c4ccc(Cl)cc4)c(-c4ccc(Cl)cc4)s3)CC2)cc1 in the same way.
(A) 5.50

(Q) Consider next the compound COc1ccc(CN2CCC(Nc3nc(-c4ccc(Cl)cc4)c(-c4ccc(Cl)cc4)s3)CC2)cc1 in the same way.
(A) 5.95

----------
# ASSAY COMMENT: in vitro
# MEASUREMENT CONDITIONS: human, SH-SY5Y cells
QUANTITY: viability at 24 h, 80 µM (%)
Value expressed in %; do not type the unit.

Known viability at 24 h, 80 µM results, listed for orientation:
>>> val("COc1ccc(-c2nc(NC(=O)C3CCN(Cc4ccccc4C(F)(F)F)CC3)sc2-c2ccc(OC)cc2)cc1")
93.1
>>> val("COc1ccc(-c2nc(NCC3CCN(Cc4ccccc4C(F)(F)F)CC3)sc2-c2ccc(OC)cc2)cc1")
90.1

(Q) Can you look up the measured viability at 24 h, 80 µM of Fc1ccc(CN2CCC(CNc3nc(-c4ccc(Cl)cc4)c(-c4ccc(Cl)cc4)s3)CC2)c(Cl)c1 for me?
(A) 88.9

(Q) Consider next the compound Fc1cc(F)cc(CN2CCC(CNc3nc(-c4ccc(Cl)cc4)c(-c4ccc(Cl)cc4)s3)CC2)c1 in the same way.
(A) 91.7

(Q) Consider next the compound COc1ccc(CN2CCC(Nc3nc(-c4ccc(OC)cc4)c(-c4ccc(OC)cc4)s3)CC2)cc1 in the same way.
(A) 89.5

(Q) Consider next the compound COc1ccc(-c2nc(NC3CCN(Cc4ccc(C)cc4)CC3)sc2-c2ccc(OC)cc2)cc1 in the same way.
(A) 89.5

(Q) Consider next the compound Fc1ccc(CN2CCC(Nc3nc(-c4ccc(Cl)cc4)c(-c4ccc(Cl)cc4)s3)CC2)c(Cl)c1 in the same way.
(A) 92.5

(Q) Consider next the compound COc1ccc(-c2nc(NC(=O)C3CCN(Cc4cccc(F)c4)CC3)sc2-c2ccc(OC)cc2)cc1 in the same way.
(A) 90.3

----------
# ASSAY COMMENT: Cmax in Wistar rat at 5 mg/kg, po administered as a single dose by HPLC analysis
# Assay type: ADME, organism-based
# Set-up: dose 5 mg/kg, route oral
# MEASUREMENT CONDITIONS: in vivo
QUANTITY: Cmax (ng/mL)
Value expressed in ng/mL; do not type the unit.

(Q) Can you look up the measured Cmax of Cc1ccc(-c2nc(NCC3CCN(Cc4cc(F)cc(F)c4)CC3)sc2-c2ccc(C)cc2)cc1 for me?
(A) 21.2

----------
# TARGET OR SYSTEM: Cholinesterase (Equus caballus, UniProt P81908)
# Sequence (P81908 whole entry): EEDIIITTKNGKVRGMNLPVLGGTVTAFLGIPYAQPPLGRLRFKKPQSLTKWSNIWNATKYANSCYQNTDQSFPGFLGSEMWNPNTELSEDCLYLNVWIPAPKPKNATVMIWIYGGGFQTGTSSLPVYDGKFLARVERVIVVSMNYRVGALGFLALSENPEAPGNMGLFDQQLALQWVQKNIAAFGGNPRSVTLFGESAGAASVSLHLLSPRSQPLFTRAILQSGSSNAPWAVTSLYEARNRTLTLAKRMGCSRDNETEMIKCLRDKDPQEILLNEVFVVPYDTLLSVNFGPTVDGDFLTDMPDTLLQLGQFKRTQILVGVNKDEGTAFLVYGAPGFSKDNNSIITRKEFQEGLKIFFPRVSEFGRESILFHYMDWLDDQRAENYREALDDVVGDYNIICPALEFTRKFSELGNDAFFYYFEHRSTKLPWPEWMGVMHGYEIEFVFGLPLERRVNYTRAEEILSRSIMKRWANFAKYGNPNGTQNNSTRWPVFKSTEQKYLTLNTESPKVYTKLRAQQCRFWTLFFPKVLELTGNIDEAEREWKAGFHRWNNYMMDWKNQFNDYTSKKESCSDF
# ASSAY COMMENT: Inhibition of equine serum BuChE using BTCI as substrate preincubated for 30 mins followed by substrate addition measured after 30 mins by Ellman assay
QUANTITY: IC50 (nM)
Value expressed in nM; do not type the unit.

>>> val("Cc1ccc(-c2nc(NCC3CCN(Cc4cc(F)cc(F)c4)CC3)sc2-c2ccc(C)cc2)cc1")
1840

(Q) Can you look up the measured IC50 of COc1ccc(-c2nc(NC(=O)C3CCN(Cc4ccccc4C#N)CC3)sc2-c2ccc(OC)cc2)cc1 for me?
(A) 3580

(Q) Consider next the compound Cc1ccc(-c2nc(NC(=O)C3CCN(Cc4ccccc4C)CC3)sc2-c2ccc(C)cc2)cc1 in the same way.
(A) 1500

(Q) Consider next the compound Cc1ccc(-c2nc(NC(=O)C3CCN(Cc4ccc(C(F)(F)F)cc4)CC3)sc2-c2ccc(C)cc2)cc1 in the same way.
(A) 2780

(Q) Consider next the compound Cc1ccc(CN2CCC(Nc3nc(-c4ccc(C)cc4)c(-c4ccc(C)cc4)s3)CC2)cc1 in the same way.
(A) 6030

(Q) Consider next the compound Cc1ccc(-c2nc(NC3CCN(Cc4ccccc4)CC3)sc2-c2ccc(C)cc2)cc1 in the same way.
(A) 3590

(Q) Consider next the compound Fc1cc(F)cc(CN2CCC(CNc3nc(-c4ccc(Cl)cc4)c(-c4ccc(Cl)cc4)s3)CC2)c1 in the same way.
(A) 820

(Q) Consider next the compound Cc1ccc(-c2nc(NCC3CCN(Cc4ccc(F)cc4)CC3)sc2-c2ccc(C)cc2)cc1 in the same way.
(A) 1950

(Q) Consider next the compound COc1ccc(-c2nc(NC(=O)C3CCN(Cc4ccc(F)cc4C(F)(F)F)CC3)sc2-c2ccc(OC)cc2)cc1 in the same way.
(A) 1780

(Q) Consider next the compound N#Cc1ccc(CN2CCC(Nc3nc(-c4ccc(Cl)cc4)c(-c4ccc(Cl)cc4)s3)CC2)cc1 in the same way.
(A) 1720

(Q) Consider next the compound COc1ccc(-c2nc(NC(=O)C3CCN(Cc4cccc(F)c4)CC3)sc2-c2ccc(OC)cc2)cc1 in the same way.
(A) 1540
